Provide the reported Residual activity of chymotrypsin of each item.
Molecular target: α-chymotrypsin (Bos taurus)
Assay: Chymotrypsin inhibitory activity of peptides (AAPFpNA hydrolysis; IC50, Ki, residual activity)
Format: biochemical
Settings: peptide 0.01 μM
Bridge positions count the residues as written; N and C are the ends. Peptide text beside a SMILES is read from it.
Express your answer as a number followed by its unit.

Below, each entry is followed by its recorded Residual activity of chymotrypsin result.
- compound: "CC[C@H](C)[C@@H]1NC(=O)[C@H](CO)NC(=O)[C@H](Cc2ccc(O)cc2)NC(=O)[C@H]([C@@H](C)O)NC(=O)[C@H](C)NC(=O)[C@H](C)NC(=O)CNC(=O)CNC(=O)[C@@H](N)CSSC[C@@H](C(=O)N[C@@H](Cc2ccccc2)C(=O)O)NC(=O)[C@H](CCCCN)NC(=O)[C@H](C)NC(=O)[C@@H]2CCCN2C1=O [CH32] (H-CGGAATYSIPAKCF-OH; disulfide 1-13; N-terminus and C-terminus assumed)"
  result: "99.5 ± 0.1%"
- compound: "CC[C@H](C)[C@@H]1NC(=O)[C@H](CO)NC(=O)[C@H](Cc2ccc(O)cc2)NC(=O)[C@H]([C@@H](C)O)NC(=O)[C@H](C)NC(=O)[C@H](C)NC(=O)CNC(=O)[C@@H](N)CSSC[C@@H](C(=O)N[C@@H](Cc2ccccc2)C(=O)O)NC(=O)[C@H](CCCCN)NC(=O)[C@H](C)NC(=O)[C@@H]2CCCN2C1=O [CH31] (H-CGAATYSIPAKCF-OH; disulfide 1-12; N-terminus and C-terminus assumed)"
  result: "107.4 ± 5.6%"

Task item: Request: Residual activity of chymotrypsin, test system α-chymotrypsin (Bos taurus), entry CC[C@H](C)[C@@H]1NC(=O)[C@@H]2CCCN2C(=O)[C@@H]2CCCN2C(=O)[C@H]([C@@H](C)CC)NC(=O)[C@H](CO)NC(=O)[C@H](Cc2ccccc2)NC(=O)[C@H]([C@@H](C)O)NC(=O)[C@H](C)NC(=O)[C@H]([C@@H](C)O)NC(=O)CNC(=O)[C@@H](N)CSSC[C@@H](C(=O)N[C@@H](CC(N)=O)C(=O)O)NC1=O [CH27] (H-CGTATFSIPPICN-OH; disulfide 1-12; N-terminus and C-terminus assumed)
Reply: 102.7 ± 2.4%

====

Target: chymotrypsin (Bos taurus)
Assay: in vitro
Details: isolated enzyme chymotrypsin, pH 7.8, Residual peak area (%)/chymotrypsin
endpointLabel: remaining at 0.5 h, 60 μM (%)
One number for each entry, in %.

Task item: Given the molecule CC(C)C[C@H](NC(=O)[C@H](Cc1ccc(O)cc1)NC(=O)[C@H](CCC(=O)O)NC(=O)[C@H](CCC(=O)O)NC(=O)[C@H](Cc1c[nH]c2ccccc12)NC(=O)[C@H](CO)NC(=O)[C@@H](NC(=O)[C@H](Cc1ccccc1)NC(=O)[C@@H](NC(=O)[C@@H](N)[C@@H](C)O)C(C)C)[C@@H](C)O)C(=O)N[C@@H](CC(=O)O)C(=O)N[C@@H](Cc1c[nH]c2ccccc12)C(=O)N[C@H](C(=O)O)C(C)C [PCSK9_1, reference compound] , what is its reported remaining at 0.5 h, 60 μM?
Reply: 62.7

====

Provide the reported IC50 of each item.
Molecular target: α-chymotrypsin (Bos taurus)
Bridge positions count the residues as written; N and C are the ends. Peptide text beside a SMILES is read from it.
One number for each entry, in µM.

- compound: "C[C@@H]1NC(=O)[C@@H](NC(=O)[C@@H](N)Cc2ccccc2)CSSC[C@@H](C(=O)N[C@@H](CCC(N)=O)C(=O)O)NC(=O)[C@H](CCCCN)NC(=O)[C@@H]2CCCN2C(=O)[C@@H]2CCCN2C(=O)[C@H](Cc2ccc(O)cc2)NC(=O)[C@H](CO)NC(=O)[C@H](Cc2ccc(O)cc2)NC1=O [CH45] (H-FCAYSYPPKCQ-OH; disulfide 2-10; N-terminus and C-terminus assumed)"
  testSystem: "α-chymotrypsin (Bos taurus)"
  IC50, µM: 19.2

# input for lookup
Task item: Return reported IC50; argument: CC[C@H](C)[C@@H]1NC(=O)[C@H](CO)NC(=O)[C@H](Cc2ccc(O)cc2)NC(=O)[C@H]([C@@H](C)O)NC(=O)[C@H](C)NC(=O)[C@H](CO)NC(=O)CNC(=O)[C@@H](N)CSSC[C@@H](C(=O)N[C@H](C(=O)NCC(=O)O)C(C)C)NC(=O)[C@H](CCC(N)=O)NC(=O)[C@H](C)NC(=O)[C@@H]2CCCN2C1=O [CH23] (H-CGSATYSIPAQCVG-OH; disulfide 1-12; N-terminus and C-terminus assumed)
Reply: 4.31

====

Consider the following molecules; for each one, report its IC50.
Molecular target: porcine pancreatic elastase (Sus scrofa)
Sequence (P00772 27-266): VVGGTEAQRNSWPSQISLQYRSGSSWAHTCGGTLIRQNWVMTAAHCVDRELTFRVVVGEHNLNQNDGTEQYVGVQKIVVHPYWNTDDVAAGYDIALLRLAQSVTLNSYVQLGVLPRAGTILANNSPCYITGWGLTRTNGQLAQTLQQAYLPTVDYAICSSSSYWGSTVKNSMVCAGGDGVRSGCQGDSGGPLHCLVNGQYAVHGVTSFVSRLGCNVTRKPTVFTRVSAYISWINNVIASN
Assay: Elastase inhibitory activity of peptides (AAApNA hydrolysis; IC50, Ki, residual activity)
Type: biochemical
Settings: elastase 0.5 μM, AAApNA 1 mM
Bridge positions count the residues as written; N and C are the ends. Peptide text beside a SMILES is read from it.

- molecule: "CC[C@H](C)[C@@H]1NC(=O)[C@H](CO)NC(=O)[C@H](C)NC(=O)[C@H]([C@@H](C)O)NC(=O)[C@H](C)NC(=O)[C@H](Cc2ccc(O)cc2)NC(=O)CNC(=O)[C@@H](N)CSSC[C@@H](C(=O)N[C@@H](Cc2ccc(O)cc2)C(=O)O)NC(=O)[C@H](CCC(N)=O)NC(=O)[C@@H]2CCCN2C(=O)[C@@H]2CCCN2C1=O [EC15] (H-CGYATASIPPQCY-OH; disulfide 1-12; N-terminus and C-terminus assumed)"
  testSystem: "porcine pancreatic elastase (Sus scrofa)"
  IC50: "> 50 µM"
- molecule: "CC[C@H](C)[C@@H]1NC(=O)[C@@H]2CCCN2C(=O)[C@@H]2CCCN2C(=O)[C@H]([C@@H](C)CC)NC(=O)[C@H](CO)NC(=O)[C@H](C)NC(=O)[C@H]([C@@H](C)O)NC(=O)[C@H](CCC(=O)O)NC(=O)[C@H](CCCNC(=N)N)NC(=O)CNC(=O)[C@@H](N)CSSC[C@@H](C(=O)N[C@@H](CCC(N)=O)C(=O)O)NC1=O [EC8] (H-CGRETASIPPICQ-OH; disulfide 1-12; N-terminus and C-terminus assumed)"
  testSystem: "porcine pancreatic elastase (Sus scrofa)"
  IC50: "> 50 µM"

Give measured IC50 for every item shown.
1. CC[C@H](C)[C@@H]1NC(=O)CNC(=O)[C@@H](N)CSSC[C@@H](C(=O)N[C@@H](CCC(N)=O)C(=O)O)NC(=O)[C@H]([C@@H](C)CC)NC(=O)[C@@H]2CCCN2C(=O)[C@@H]2CCCN2C(=O)[C@H]([C@@H](C)CC)NC(=O)[C@H](CO)NC(=O)[C@H](C)NC(=O)[C@H]([C@@H](C)O)NC(=O)[C@H](CC(N)=O)NC1=O [EC38] (H-CGINTASIPPICQ-OH; disulfide 1-12; C-terminus assumed)
2. CC[C@H](C)[C@@H]1NC(=O)[C@@H]2CCCN2C(=O)[C@@H](N)CSSC[C@@H](C(=O)N[C@@H](CCC(N)=O)C(=O)O)NC(=O)[C@H]([C@@H](C)CC)NC(=O)[C@@H]2CCCN2C(=O)[C@@H]2CCCN2C(=O)[C@H]([C@@H](C)CC)NC(=O)[C@H](CO)NC(=O)[C@H](C)NC(=O)[C@H]([C@@H](C)O)NC(=O)[C@H](C)NC1=O [EC44] (H-CPIATASIPPICQ-OH; disulfide 1-12)
3. CC[C@H](C)[C@@H]1NC(=O)CNC(=O)[C@@H](N)CSSC[C@@H](C(=O)N[C@@H](CCC(N)=O)C(=O)O)NC(=O)[C@H]([C@@H](C)CC)NC(=O)[C@@H]2CCCN2C(=O)[C@@H]2CCCN2C(=O)[C@H]([C@@H](C)CC)NC(=O)[C@H](CO)NC(=O)[C@H](C)NC(=O)[C@H]([C@@H](C)O)NC(=O)[C@H](Cc2ccccc2)NC1=O [EC36] (H-CGIFTASIPPICQ-OH; disulfide 1-12)
4. CC[C@H](C)[C@@H]1NC(=O)[C@@H]2CCCN2C(=O)[C@@H]2CCCN2C(=O)[C@H]([C@@H](C)CC)NC(=O)[C@H](CO)NC(=O)[C@H](CC(C)C)NC(=O)[C@H]([C@@H](C)O)NC(=O)[C@H](C)NC(=O)[C@H](CC(C)C)NC(=O)CNC(=O)CNC(=O)[C@@H](N)CSSC[C@@H](C(=O)N[C@@H](CCC(N)=O)C(=O)O)NC1=O [EC17] (H-CGGLATLSIPPICQ-OH; disulfide 1-13)
5. CC[C@H](C)[C@@H]1NC(=O)[C@H](CO)NC(=O)[C@H](C)NC(=O)[C@H]([C@@H](C)O)NC(=O)[C@@H](NC(=O)[C@@H](N)CC(C)C)CSSC[C@@H](C(=O)N[C@@H](CCCNC(=N)N)C(=O)O)NC(=O)[C@H](CCC(N)=O)NC(=O)[C@@H]2CCCN2C(=O)[C@@H]2CCCN2C1=O [EC20] (H-LCTASIPPQCR-OH; disulfide 2-10; N-terminus and C-terminus assumed)
6. CC[C@H](C)[C@@H]1NC(=O)[C@H](CO)NC(=O)[C@H](C)NC(=O)[C@H]([C@@H](C)O)NC(=O)[C@H](CCC(=O)O)NC(=O)[C@H](CCCNC(=N)N)NC(=O)CNC(=O)[C@@H](N)CSSC[C@@H](C(=O)O)NC(=O)[C@H](CCCCN)NC(=O)[C@H](CCC(N)=O)NC(=O)[C@@H]2CCCN2C(=O)[C@@H]2CCCN2C1=O [EC10] (H-CGRETASIPPQKC-OH; disulfide 1-13; N-terminus and C-terminus assumed)
7. CC[C@H](C)[C@H](N)C(=O)N[C@H]1CSSC[C@@H](C(=O)N[C@H](C(=O)O)C(C)C)NC(=O)[C@H](CCC(N)=O)NC(=O)[C@H](C)NC(=O)[C@@H]2CCCN2C(=O)[C@H]([C@@H](C)CC)NC(=O)[C@H](CO)NC(=O)[C@H](CC(C)C)NC(=O)[C@H]([C@@H](C)O)NC1=O [EC13] (H-ICTLSIPAQCV-OH; disulfide 2-10; N-terminus and C-terminus assumed)
8. CC[C@H](C)[C@@H]1NC(=O)[C@H](CO)NC(=O)[C@H](C)NC(=O)[C@H]([C@@H](C)O)NC(=O)[C@H](CCC(=O)O)NC(=O)[C@H](CCCNC(=N)N)NC(=O)CNC(=O)[C@@H](N)CSSC[C@@H](C(=O)O)NC(=O)CNC(=O)[C@H](CCCCN)NC(=O)[C@H](CCC(N)=O)NC(=O)[C@@H]2CCCN2C(=O)[C@@H]2CCCN2C1=O [EC11] (H-CGRETASIPPQKGC-OH; disulfide 1-14; N-terminus and C-terminus assumed)

Reply:
1. 1 µM
2. > 50 µM
3. > 50 µM
4. > 50 µM
5. > 50 µM
6. > 50 µM
7. > 50 µM
8. > 50 µM

Value source: patent US20230416329A1
